# Test system: NCI-H226 lung
# test: NCI tumour cell line growth inhibition, 48 h; in the data active means GI50 below about 0.43 µM; inactive means the rest
Labels: Y = active, N = inactive

{"columns": ["compound", "measured.target", "qualitative.label"],
 "data": [
  ["CC/C=C\\C/C=C\\C[C@H](O)C/C=C1/C(=O)C=C[C@@H]1C/C=C\\CCCC(=O)O", "NCI-H226 lung", "N"],
  ["CCOc1cc2c(cc1O)/C(=N\\O)C[C@@H]1[C@@H]2CC[C@]2(C)[C@@H](O)CC[C@@H]12", "NCI-H226 lung", "Y"],
  ["COc1ccc(-c2nn(-c3cccc(NC(=O)c4ccc5c(c4)OCCO5)c3)cc2-c2ccncc2)cc1Cl", "NCI-H226 lung", "N"],
  ["COc1cnc2c(c1)C(=O)c1c-2n(CCCN2CCC(O)CC2)c(=O)c2cc(F)ccc12", "NCI-H226 lung", "Y"],
  ["O=C(CSC(c1ccccc1)c1ccccc1)N/N=C/c1cccc(Cl)c1", "NCI-H226 lung", "N"],
  ["O=C(Nc1ccc(CN2CCOCC2)cc1)c1[nH]ncc1Nc1ncnc2sccc12", "NCI-H226 lung", "Y"],
  ["Cn1c(O)c(C(/C=C/c2ccccc2)=NCCN=C(/C=C/c2ccccc2)c2c(O)n(C)c(=O)n(C)c2=O)c(=O)n(C)c1=O", "NCI-H226 lung", "N"],
  ["CN(C)c1ncnc2c1nnn2C1OC(CO)C(O)C1O (centres undefined)", "NCI-H226 lung", "N"],
  ["O=C(CCCN1CCOCC1)Nc1ccc(Cn2nnc3c2C(=O)c2nnn(Cc4ccc(NC(=O)CCCN5CCOCC5)cc4)c2C3=O)cc1", "NCI-H226 lung", "N"],
  ["Cc1cnc(/C=N\\NC(N)=S)c2cccc(N)c12", "NCI-H226 lung", "N"],
  ["CC/C(=C(/CC)c1ccc([O-])cc1)c1ccc([O-])cc1.CC/C(=C(\\CC)c1ccc([O-])cc1)c1ccc([O-])cc1.O=C([CH-]C(=O)c1ccccc1)c1ccccc1.O=C([CH-]C(=O)c1ccccc1)c1ccccc1.O=C([CH-]C(=O)c1ccccc1)c1ccccc1.O=C([CH-]C(=O)c1ccccc1)c1ccccc1.[Ti+4].[Ti+4]", "NCI-H226 lung", "N"],
  ["CC(C)(C#N)c1cc(F)cc(C(=O)Nc2cc(Nc3ncccc3-c3ncnc4nc[nH]c34)ccc2F)c1", "NCI-H226 lung", "N"],
  ["CN(C)CCOc1ccc(/C(=C(/CCCl)c2ccccc2)c2ccccc2)cc1", "NCI-H226 lung", "N"],
  ["Oc1ccc(O)c(-c2cc(-c3ccccc3)nn2-c2ccccc2)c1", "NCI-H226 lung", "N"],
  ["COc1ccc2c(c1)C(=O)c1c-2c(Nc2ccc(C(C)=O)cc2)nc2ccccc12", "NCI-H226 lung", "N"],
  ["N#Cc1ccc(N2Cc3ccccc3OC3=C2C(=O)c2c(O)ccc(O)c2C3=O)cc1", "NCI-H226 lung", "Y"],
  ["O=c1cc(N2CCNCC2)oc2c(-c3ccccc3)cccc12", "NCI-H226 lung", "N"],
  ["CCOC(=O)/C=C/c1cc2cc(-c3csc4ccccc34)ccc2[nH]1", "NCI-H226 lung", "N"],
  ["CC(=O)c1cc2c(cc1Nc1c3ccccc3nc3occ(Cl)c13)OCO2", "NCI-H226 lung", "N"]
]}

----------
# Tested on: NCI/ADR-RES ovarian
# test: NCI tumour cell line growth inhibition, 48 h; in the data active = GI50 below about 0.43 µM; inactive = the rest
Labels: active, inactive

{"columns": ["molecule", "qualitative.label"],
 "data": [
  ["CO/N=C(\\C)c1cccc(Nc2cc(-c3ccccc3)nc3c(O)cccc23)c1", "inactive"],
  ["CN(C)c1ccc(/C=C(\\C#N)c2nc3ccccc3n2C)cc1", "inactive"],
  ["Cc1cccc(C(=O)/C=C/SC(=NC#N)SCc2ccccc2)c1", "inactive"],
  ["COc1cc2nccc(Oc3ccc(NC(=O)C4(C(=O)Nc5ccc(F)cc5)CC4)cc3)c2cc1Oc1ccc(N)cn1", "inactive"],
  ["O=C(CN1CCN(c2ccc(Cl)cc2)CC1)N1CCN(c2nnc(-c3ccc(Cl)cc3)c(-c3ccc(Cl)cc3)n2)CC1", "inactive"],
  ["O=C(c1ccco1)c1nc2cc(F)ccc2[n+]([O-])c1C(F)(F)F", "inactive"],
  ["CCOC(=O)c1c2c(n(Cc3ccccc3)c1C)-c1ccccc1C(=O)C2=O", "inactive"],
  ["O=C(CSC(c1ccccc1)c1ccccc1)N/N=C/c1cccc(Cl)c1", "inactive"],
  ["CCN1C(=O)NC(=O)C(C)(N2C(=O)c3c(F)c(F)c(F)c(F)c3C2=O)C1=O (stereo not drawn)", "inactive"],
  ["Cn1cc(C2=C(c3cccnc3)C(=O)NC2=O)c2ccccc21", "inactive"],
  ["CN(C)CCOc1ccc(/C(=C(/CCCl)c2ccccc2)c2ccccc2)cc1", "inactive"],
  ["N#Cc1ccc(N2Cc3ccccc3OC3=C2C(=O)c2c(O)ccc(O)c2C3=O)cc1", "inactive"],
  ["CC(=O)OCC(=O)O[C@@H]1C[C@]2(C(C)C)O[C@@]1(C)[C@@H]1CC[C@@H](C)[C@H]1[C@@H]2OC(=O)/C=C/c1ccccc1", "active"]
]}

----------
# Tested on: OVCAR-5 ovarian
# test: NCI tumour cell line growth inhibition, 48 h
attribute.measured: GI50

{"columns": ["chem.smiles", "measured.target", "result"],
 "data": [
  ["O=C(Nc1ccc(Cl)cc1F)c1cc(I)ccc1O", "OVCAR-5 ovarian", "4.21 µM"],
  ["COc1ccc2nc3cc(Cl)ccc3c(N3CCN(c4ccnc(N5CCOCC5)n4)CC3)c2c1", "OVCAR-5 ovarian", "7.58 µM"],
  ["CC[C@H](Nc1nc(N)nc(C)c1C#N)c1nc2cccc(NCc3ccc(C(=O)NO)cc3)c2c(=O)n1-c1ccccc1", "OVCAR-5 ovarian", "1.49 µM"],
  ["O=C(Nc1ccc(Oc2ccc3nc(NC(=O)c4ccccc4)[nH]c3c2)cc1)Nc1cc(C(F)(F)F)ccc1F", "OVCAR-5 ovarian", "4.41 µM"],
  ["O=[N+]([O-])c1ccc2c(N3CCC(CCCC4CCN(c5ncnc6cc([N+](=O)[O-])ccc56)CC4)CC3)ncnc2c1", "OVCAR-5 ovarian", "> 100 µM"]
]}

----------
Overview of reported TGI across a group of compounds:
# System: HCT-15 colon
# test: NCI tumour cell line growth inhibition, 48 h

{"columns": ["compound", "measured.target", "TGI"],
 "data": [
  ["CC(Oc1ccc(OCC2CCCCC2)cc1)C(N)=O (stereo not drawn)", "HCT-15 colon", "> 100 µM"],
  ["C=CC[P+](c1ccccc1)(c1ccccc1)c1ccccc1", "HCT-15 colon", "> 100 µM"],
  ["O=C(O)c1ccccc1CC1Cc2ccc3c(c2C1=O)CCC3 (stereo not drawn)", "HCT-15 colon", "> 100 µM"],
  ["O=C(O)CCC(=O)c1ccc2ccc3cccc4ccc1c2c34", "HCT-15 colon", "> 100 µM"],
  ["Oc1ccc(O)c(-c2cc(-c3ccccc3)nn2-c2ccccc2)c1", "HCT-15 colon", "42.6 µM"],
  ["COC1CCC(O)C(/C=C/[N+](=O)[O-])C1 (stereo not drawn)", "HCT-15 colon", "4.69 µM"],
  ["CC(=O)Nc1ccc(CNc2cc(=O)n(C)c(=O)[nH]2)cc1", "HCT-15 colon", "> 100 µM"],
  ["O=C1/C(=C/c2ccc(Cl)cc2)N=C(c2ccccc2)N1c1nc2ccccc2s1", "HCT-15 colon", "> 100 µM"],
  ["NCCCCN(CCCN)C(=O)c1ccccc1", "HCT-15 colon", "> 100 µM"],
  ["O=C(O)Cc1cccc2c1Oc1ccccc1S2", "HCT-15 colon", "> 100 µM"],
  ["Cc1c(C(=O)C/C(=N/NC(=O)C[n+]2ccccc2)C(=O)Nc2ccccc2)[n+](=O)c2ccccc2n1O", "HCT-15 colon", "> 100 µM"],
  ["COc1ccc(/C=C2\\N=C3Sc4c(nc[nH]c4=O)N3C2=O)cc1", "HCT-15 colon", "> 100 µM"],
  ["Cc1ccc(C[P+]2(c3ccccc3)CCCCC2)cc1", "HCT-15 colon", "> 100 µM"],
  ["O=[N+]([O-])c1ccc2c(c1)Nc1c3ccccc3nc3cccc-2c13", "HCT-15 colon", "81.2 µM"],
  ["O=C(O)c1ccc(-c2nc3ccc(Cl)cc3[nH]2)cc1", "HCT-15 colon", "> 100 µM"],
  ["CCOc1cc2c(cc1O)/C(=N\\O)C[C@@H]1[C@@H]2CC[C@]2(C)[C@@H](O)CC[C@@H]12", "HCT-15 colon", "> 36.8 µM"],
  ["COc1ccc(-c2nn(-c3cccc(NC(=O)c4ccc5c(c4)OCCO5)c3)cc2-c2ccncc2)cc1Cl", "HCT-15 colon", "22.5 µM"],
  ["O=C(N/C(=C\\c1cccc([N+](=O)[O-])c1)c1nc2[nH]c(=S)[nH]c(=O)c2[nH]1)c1ccccc1", "HCT-15 colon", "> 100 µM"]
]}
